# IC50 listing for each entry below
Biological target: UniProt P11597
Sequence (P11597 18-493): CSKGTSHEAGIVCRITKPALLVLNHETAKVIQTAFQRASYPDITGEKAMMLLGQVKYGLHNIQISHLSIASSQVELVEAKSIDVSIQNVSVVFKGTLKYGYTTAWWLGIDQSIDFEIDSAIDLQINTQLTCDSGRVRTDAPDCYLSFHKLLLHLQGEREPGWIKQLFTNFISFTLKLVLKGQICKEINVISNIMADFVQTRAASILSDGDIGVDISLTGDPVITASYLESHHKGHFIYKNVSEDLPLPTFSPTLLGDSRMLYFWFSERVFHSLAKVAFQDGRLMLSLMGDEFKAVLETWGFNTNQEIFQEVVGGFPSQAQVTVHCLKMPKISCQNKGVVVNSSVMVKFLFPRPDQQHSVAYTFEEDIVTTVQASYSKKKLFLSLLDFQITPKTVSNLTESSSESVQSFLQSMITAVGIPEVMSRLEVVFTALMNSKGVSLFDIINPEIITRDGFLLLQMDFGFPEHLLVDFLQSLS
Test: Inhibitory activity against CETP in human plasma (Roar CETP activity kit, fluorescence)
Details: plasma from healthy men diluted 1:10 in assay buffer, 37° C., 3 hrs, fluorescence 465/535 nm; read-out: IC50, Inhibition of CETP Activity in Human Plasma
Please answer using the number first and the unit second.

compound="C[C@H]1[C@@H](c2cc(C(F)(F)F)cc(C(F)(F)F)c2)OC(=O)N1Cc1cc(C(F)(F)F)cnc1N(C1CCC1)C1CCOCC1 [Example 11]" reading="317 nM"
compound="CCCN(c1ncc(C(F)(F)F)cc1CN1C(=O)O[C@H](c2cc(C(F)(F)F)cc(C(F)(F)F)c2)[C@@H]1C)C1CCOCC1 [Example 8]" reading="14 nM"

Please examine the following record next.
Ask: IC50 for CCN(c1ncc(-c2ccco2)cc1CN1C(=O)O[C@H](c2cc(C(F)(F)F)cc(C(F)(F)F)c2)[C@@H]1C)C1CCOCC1 [Example 49] ?
Reply: 23.7 nM

====

Target: CETP (Homo sapiens, UniProt P11597)
Sequence (P11597 18-493): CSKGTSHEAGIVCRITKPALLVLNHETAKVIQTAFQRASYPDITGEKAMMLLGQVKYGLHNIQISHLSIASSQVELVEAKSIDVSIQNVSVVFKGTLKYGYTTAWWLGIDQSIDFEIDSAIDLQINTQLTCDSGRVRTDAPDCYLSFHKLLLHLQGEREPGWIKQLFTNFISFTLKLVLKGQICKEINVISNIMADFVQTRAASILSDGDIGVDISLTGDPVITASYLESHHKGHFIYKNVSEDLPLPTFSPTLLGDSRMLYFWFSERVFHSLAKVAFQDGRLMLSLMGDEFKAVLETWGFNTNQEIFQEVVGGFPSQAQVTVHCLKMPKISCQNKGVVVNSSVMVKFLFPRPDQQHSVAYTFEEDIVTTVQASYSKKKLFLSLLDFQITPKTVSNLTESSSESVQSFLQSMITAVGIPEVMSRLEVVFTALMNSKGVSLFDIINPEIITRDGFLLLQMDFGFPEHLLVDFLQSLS
Assay: Inhibitory activity against CETP in human plasma (Roar CETP activity kit, fluorescence)
Conditions: plasma from healthy men diluted 1:10 in assay buffer, 37° C., 3 hrs, fluorescence 465/535 nm; read-out: IC50, Inhibition of CETP Activity in Human Plasma
measurement.label: pIC50
The read-out pIC50 is expressed as -log10 of concentration in moles per litre.

Sample answers from the record:
compound="C[C@H]1[C@@H](c2cc(C(F)(F)F)cc(C(F)(F)F)c2)OC(=O)N1Cc1cc(C(F)(F)F)cnc1N(C)C1CCOC1 (stereo partly drawn)" measurement_label=pIC50 reading=6.95
compound=CCN(c1ncc(-c2c(C)n[nH]c2C)cc1CN1C(=O)O[C@H](c2cc(C(F)(F)F)cc(C(F)(F)F)c2)[C@@H]1C)C1CCCCC1 measurement_label=pIC50 reading=6.65
compound=CCN(c1ncc(-c2c(C)nn(C)c2C)cc1CN1C(=O)O[C@H](c2cc(C(F)(F)F)cc(C(F)(F)F)c2)[C@@H]1C)C1CCCCC1 measurement_label=pIC50 reading=7.53
compound=CCN(c1ncc(OS(C)(=O)=O)cc1CN1C(=O)O[C@H](c2cc(C(F)(F)F)cc(C(F)(F)F)c2)[C@@H]1C)C1CCCCC1 measurement_label=pIC50 reading=7.95
compound=CCN(c1ncc(Br)cc1CN1C(=O)O[C@H](c2cc(C(F)(F)F)cc(C(F)(F)F)c2)[C@@H]1C)C1CCOCC1 measurement_label=pIC50 reading=7.70

Please examine the following record next.
Ask: pIC50 for CCN(c1ncc(-c2nnnn2C)cc1CN1C(=O)O[C@H](c2cc(C(F)(F)F)cc(C(F)(F)F)c2)[C@@H]1C)C1CCCCC1 ?
Reply: 7.33
